# Assay Explanation: qHTS for Inhibitors of human tyrosyl-DNA phosphodiesterase 1 (TDP1): qHTS in cells in presence of CPT; also: nearly all actives have a fitted effect of over 55% in size; also: potency is read from the fitted curve at half-maximal effect
# Experimental Context: chicken DT40 Tdp1-/-;hTDP1 cells + 20 nM CPT, ATP luminescence, 48 h; series mostly up to 46.2 µM
The whole screen tested about 420,000 compounds, of which about 50,000 (12%) were called active. About 26% were inconclusive and are not listed. The sample holds actives, similar compounds and a random draw of the others, so the mix is not that of the screen.
Observation Type: Potency

Example cases with answers are listed next.
>>> observed_value("CCCCn1c(N)c(N(CC(C)C)C(=O)c2cccc(S(=O)(=O)N3CC(C)OC(C)C3)c2)c(=O)[nH]c1=O (stereo unspecified)")
"inactive"
>>> observed_value("N#C/C(C(=O)N1CCOCC1)=C1/SC(Cc2ccc(F)cc2)C(=O)N1c1ccccc1 (stereo unspecified)")
"inactive"
>>> observed_value("CC(C)Oc1ccc(C(=O)Nc2cc(=O)n(C)c(=O)n2C)cc1")
"inactive"
>>> observed_value("CCCCCC(=O)Nc1ccc(-c2cn3cccnc3n2)cc1")
"inactive"

Prompt line: Answer with reported Potency of `CCc1ccnc(NC(=O)Nc2ccc(OCc3ccccc3)cc2)c1`
Response line: inactive

Prompt line: Answer with reported Potency of COc1ccc(OC(C)C(=O)Nc2cccnc2)cc1 (stereo unspecified)
Response line: inactive

Prompt line: Answer with reported Potency of `CCn1c(=O)c(=O)[nH]c2c(=O)oc3ccc(S(=O)(=O)Nc4ccc(OC)cc4)cc3c21`
Response line: inactive

Prompt line: Answer with reported Potency of `CCN(CC)N=Nc1cccc(NC(C)=O)c1`
Response line: 11.6 µM (active)

Prompt line: Answer with reported Potency of `Cc1cc(C)c2c(=O)[nH]c(SCC(=O)Nc3ccc(Br)cc3)nc2n1`
Response line: inactive

Prompt line: Answer with reported Potency of `Cc1ccc2cccc(NC(=O)c3ccc(OC(C)C)cc3)c2n1`
Response line: 18.4 µM (active)

Prompt line: Answer with reported Potency of `CC(=O)Nc1cccc(Nc2ccc(C#N)cc2)c1`
Response line: inactive

====

# Assay Explanation: qHTS for Inhibitors of human tyrosyl-DNA phosphodiesterase 1 (TDP1): qHTS in cells in presence of CPT; also: nearly all actives have a fitted effect of over 55% in size; also: potency is read from the fitted curve at half-maximal effect
# Experimental Context: chicken DT40 Tdp1-/-;hTDP1 cells + 20 nM CPT, ATP luminescence, 48 h; series mostly up to 46.2 µM
Hit rate of the full screen: of about 420,000 compounds, about 50,000 (12%) were called active. Another 26% or so got no clear call; they are omitted. The sample holds actives, similar compounds and a random draw of the others, so the mix is not that of the screen.
Observation Type: Potency

Example cases with answers are listed next.
>>> observed_value("CCCCn1nnnc1C1(C)CCC(=O)N1Cc1ccc(OC)c(OC)c1 (stereo not drawn)")
"inactive"
>>> observed_value("CN(C)/N=C/c1cn(-c2ccccc2)nc1-c1cccnc1")
"inactive"
>>> observed_value("O=C(NCCCN1CCOCC1)c1cnn2c(-c3ccccc3)cc(-c3ccccc3)nc12")
"18.4 µM (active)"
>>> observed_value("CCCOc1ccc(Cn2c(O)cc(=O)[nH]c2=O)cc1")
"inactive"
>>> observed_value("CCCCOc1ccc(CN2C(=O)C(=O)c3cc(Br)cc(C)c32)cc1OC")
"0.82 µM (active)"

Prompt line: Answer with reported Potency of `Cc1ccc(NC(=O)CSc2nc3c(c(=O)[nH]2)CN(Cc2ccc4c(c2)OCO4)CC3)cc1C`
Response line: inactive

Prompt line: Answer with reported Potency of `COc1ccc(NC(=O)C2=NNC(=O)CC2)cc1S(=O)(=O)N1CCCCC1`
Response line: inactive

Prompt line: Answer with reported Potency of `CCc1ccccc1OCC(=O)Nc1ccc2c(c1)OCCO2`
Response line: inactive

Prompt line: Answer with reported Potency of `COc1cc2c(cc1O)C(SC)=NC(C)(C)C2`
Response line: 25.9 µM (active)

====

# Assay Explanation: qHTS for Inhibitors of human tyrosyl-DNA phosphodiesterase 1 (TDP1): qHTS in cells in presence of CPT; also: nearly all actives have a fitted effect of over 55% in size
# Experimental Context: chicken DT40 Tdp1-/-;hTDP1 cells + 20 nM CPT, ATP luminescence, 48 h; series mostly up to 46.2 µM
The campaign covered roughly 420,000 compounds. About 50,000 (12%) were called active. Another 26% or so got no clear call; they are omitted. The call rests on the fitted dose curve; in most records, active means well fitted inhibition curve with a large enough effect; inconclusive means small, poorly fitted or top-dose-only effect; inactive means flat fitted curve, though single readings scatter. The sample holds actives, similar compounds and a random draw of the others, so the mix is not that of the screen.
Select the correct class. Options are active, inactive and nothing else.

Prompt line: For `O=C(N/N=C/c1c(Cl)[nH]c2ccccc12)c1sc2ccccc2c1Cl` , what call appears in the results of this test?
Response line: active

Prompt line: For `COC(=O)c1cc(NC(=O)c2sc3ccccc3c2Cl)cc(C(=O)OC)c1` , what call appears in the results of this test?
Response line: inactive

Prompt line: For COc1ccccc1OCc1ccc(C(=O)NC(C)c2ccccc2)o1 (configuration not stated) , what call appears in the results of this test?
Response line: inactive

Prompt line: For O=C(CCN1CCc2ccccc2C(O)(c2ccccc2)C1)c1ccc2c(c1)OCCO2 (configuration not stated) , what call appears in the results of this test?
Response line: active

Prompt line: For `CC(C)(CCl)C(=O)Nc1ccc(Sc2ccc(F)cc2)cc1` , what call appears in the results of this test?
Response line: active

Prompt line: For `Cc1ccc(NC(=S)NCCN2CCOCC2)cc1` , what call appears in the results of this test?
Response line: inactive

Prompt line: For NC(=O)C1CCN(CC(O)CSc2ccc(F)cc2)CC1 (configuration not stated) , what call appears in the results of this test?
Response line: inactive

Prompt line: For `COC(=O)c1ccc(COc2ccc(/C=N/NC(=O)C(=O)Nc3ccc(OC)cc3)cc2OC)o1` , what call appears in the results of this test?
Response line: inactive

Prompt line: For `O=C(COc1ccccc1)Nc1ccc(F)cc1` , what call appears in the results of this test?
Response line: inactive

Prompt line: For CCC(C)NC(=O)c1cc(Cl)ccc1OC (configuration not stated) , what call appears in the results of this test?
Response line: inactive

Prompt line: For `O=C(COC(=O)C12CC3CC(CC(O)(C3)C1)C2)NC12CC3CC(CC(C3)C1)C2` , what call appears in the results of this test?
Response line: inactive

Prompt line: For `NC(=O)c1ccccc1N=Cc1ccc2ccccc2c1` , what call appears in the results of this test?
Response line: active

====

# Assay Explanation: qHTS for Inhibitors of human tyrosyl-DNA phosphodiesterase 1 (TDP1): qHTS in cells in presence of CPT; also: nearly all actives have a fitted effect of over 55% in size
# Experimental Context: chicken DT40 Tdp1-/-;hTDP1 cells + 20 nM CPT, ATP luminescence, 48 h; series mostly up to 46.2 µM
About 50,000 (12%) of roughly 420,000 compounds were called active. Not shown: some 26% with an inconclusive outcome. The call rests on the fitted dose curve; in most records, active means well fitted inhibition curve with a large enough effect; inconclusive means small, poorly fitted or top-dose-only effect; inactive means flat fitted curve, though single readings scatter. This excerpt belongs to a sample that is enriched for actives.
Select the correct class. Options are active, inactive and nothing else.

Prompt line: For `Cc1cccc(-c2noc(CCC(=O)NC3CCCC3)n2)c1` , what call appears in the results of this test?
Response line: inactive

Prompt line: For CC1(C(=O)NCc2ccc3c(c2)OCO3)CCN1C(=O)Cc1cccs1 (stereo not given) , what call appears in the results of this test?
Response line: inactive

Prompt line: For `CCOC(=O)c1ccccc1NC(=S)N1CCC(C(N)=O)CC1` , what call appears in the results of this test?
Response line: inactive

Prompt line: For COc1ccc(CC(=O)OC(C)C(=O)Nc2ccc(S(N)(=O)=O)cc2)cc1 (stereo not given) , what call appears in the results of this test?
Response line: inactive

Prompt line: For `CC(C)(C)c1ccc(/C=C/C(=O)Nc2ncccn2)cc1` , what call appears in the results of this test?
Response line: inactive

Prompt line: For CCOc1ccc(C(CC(=O)O)n2cnnn2)cc1OC (stereo not given) , what call appears in the results of this test?
Response line: inactive

Prompt line: For CCN(CC)CCCC(C)n1c2nc(=O)[nH]c(=O)c-2nc2cc(Cl)ccc21 (stereo not given) , what call appears in the results of this test?
Response line: active

Prompt line: For `COc1ccc(OC)c(/C=N/NC(=O)c2ccc[n+](CC(=O)c3ccccc3)c2)c1` , what call appears in the results of this test?
Response line: inactive

Prompt line: For `Cc1ccc(NC(=O)c2sc3nc(N)c(C#N)cc3c2N)cc1` , what call appears in the results of this test?
Response line: inactive

Prompt line: For `O=C(O)c1ccc(/C=C2\SC(=S)N(NC(=O)c3ccc(Br)cc3)C2=O)cc1` , what call appears in the results of this test?
Response line: inactive

Prompt line: For `Cc1ccc(NC(=O)COc2ccc(/C=N\NC(=O)c3cccnc3)cc2)cc1C` , what call appears in the results of this test?
Response line: inactive

Prompt line: For `COc1ccc(-n2nc3c(c2NC(=O)c2ccc(N4C(=O)CCC4=O)cc2)CSC3)cc1` , what call appears in the results of this test?
Response line: inactive

Prompt line: For `COc1ccc(Cl)cc1NC(=O)CN1CCN(C(=O)N2CCOCC2)CC1` , what call appears in the results of this test?
Response line: inactive

Prompt line: For CNC(=O)NC(=O)CSc1nnc(-c2ccc(F)cc2)n1CC1CCCO1 (stereo not given) , what call appears in the results of this test?
Response line: inactive

Prompt line: For `O=S(=O)(NCCc1ccc(F)cc1)c1cccc2cccnc12` , what call appears in the results of this test?
Response line: inactive

Prompt line: For `O=C(Cc1ccccc1)Nc1ccc(C(=O)Nc2ccccc2C(=O)O)cc1` , what call appears in the results of this test?
Response line: inactive

Prompt line: For `COc1ccc(Cl)cc1NC(=O)c1sc2nc3c(cc2c1N)CN(C)CC3` , what call appears in the results of this test?
Response line: active

Prompt line: For `CCN1CCN(CC(=O)c2cc(OC)c(OC)c(OC)c2)CC1` , what call appears in the results of this test?
Response line: inactive

Prompt line: For Oc1cc(O)c2c(c1)OC(c1ccc(O)c(O)c1)C(O)C2 (stereo not given) , what call appears in the results of this test?
Response line: inactive

Prompt line: For CCOC(=O)c1c(C)[nH]c(C2=NNC(=NC(C)COC)SC2)c1C (stereo not given) , what call appears in the results of this test?
Response line: active

Prompt line: For `Cc1nn2cc(-c3ccc(Cl)cc3)cnc2c1Br` , what call appears in the results of this test?
Response line: inactive

Prompt line: For Cn1c(=O)c2c(SCC(=O)NCC3CCCO3)nc(-c3ccccc3F)nc2n(C)c1=O (stereo not given) , what call appears in the results of this test?
Response line: inactive

Prompt line: For `CCn1c(CNC(=O)c2cc(OC)c(OC)c(OC)c2)cc2cc(C)ccc21` , what call appears in the results of this test?
Response line: active

Prompt line: For `Cc1c(NC(=O)c2cccnc2)c(=O)n(-c2ccccc2)n1C` , what call appears in the results of this test?
Response line: inactive

Prompt line: For `CCN(CC)CCCSc1nc2ccccc2s1` , what call appears in the results of this test?
Response line: inactive

Prompt line: For `C=CCn1c(CNC(=O)c2ccco2)nnc1SCC(=O)c1ccc(OC)cc1` , what call appears in the results of this test?
Response line: inactive

Prompt line: For `CCOc1ccc(OCC(=O)Nc2c3c(nn2C(C)(C)C)CS(=O)(=O)C3)cc1` , what call appears in the results of this test?
Response line: inactive

Prompt line: For `CCN1CCc2nc(NC(=O)c3cc(F)c(F)cc3Cl)sc2C1` , what call appears in the results of this test?
Response line: inactive

Prompt line: For CC1(C(=O)NCc2cccc3ccccc23)CCN1Cc1ccc(-c2ccccc2)o1 (stereo not given) , what call appears in the results of this test?
Response line: active

Prompt line: For CSc1ccc(CN2CCC2(C)C(=O)NCc2ccccc2Br)cc1 (stereo not given) , what call appears in the results of this test?
Response line: active

Prompt line: For `O=C(CCc1ccc(S(=O)(=O)N2CCOCC2)cc1)OCC(=O)c1ccc(Br)cc1` , what call appears in the results of this test?
Response line: inactive

Prompt line: For `N[C@@H](Cc1ccccc1)C(=O)N1CCOCC1` , what call appears in the results of this test?
Response line: inactive

Prompt line: For CCc1ccc(CNC(=O)C2CCCN(c3nc4ccccc4o3)C2)cc1 (stereo not given) , what call appears in the results of this test?
Response line: inactive

Prompt line: For `Cc1cc(C)c(NC(=O)c2cc3sc(Cl)cc3n2C)c(C)c1` , what call appears in the results of this test?
Response line: inactive

Prompt line: For `CC(=O)Nc1ccc(NC(=O)c2sc3nc4c(c(-c5ccc(C)cc5)c3c2N)CCC4)cc1` , what call appears in the results of this test?
Response line: inactive

Prompt line: For `Cc1cccc(NC(=O)c2cccnc2Cl)n1` , what call appears in the results of this test?
Response line: inactive

Prompt line: For `CCOC(=O)c1cnc(Nc2nc3ccccc3o2)nc1CSC(=S)N1CCCCC1` , what call appears in the results of this test?
Response line: active

Prompt line: For CC(C)C1Cc2[nH][nH]c(=O)c2C(c2ccc(Cl)cc2)O1 (stereo not given) , what call appears in the results of this test?
Response line: inactive

Prompt line: For `CN=C1S/C(=C\c2c(OC)cc(OC)cc2OC)C(=O)N1C` , what call appears in the results of this test?
Response line: inactive

Prompt line: For `Cn1cc(CNC(=O)c2ccc(OC3CCN(Cc4ccccn4)CC3)cc2)cn1` , what call appears in the results of this test?
Response line: inactive

Prompt line: For CSc1ccc(CNC(=O)C2(C)CCCN2C)cc1 (stereo not given) , what call appears in the results of this test?
Response line: inactive

Prompt line: For `CCN1CCc2nc3sc(C(=O)Nc4ccccc4OC(F)(F)F)c(N)c3cc2C1` , what call appears in the results of this test?
Response line: active

Prompt line: For `Cc1nn(C)cc1S(=O)(=O)N1CCN(c2ccc(F)cc2)CC1` , what call appears in the results of this test?
Response line: inactive

Prompt line: For `CC(C)c1cccc(C(C)C)c1Nc1cn[nH]c1` , what call appears in the results of this test?
Response line: active

Prompt line: For Cc1nn(-c2ccccc2)nc1C(=O)OCC(=O)N1CCCCC1C (stereo not given) , what call appears in the results of this test?
Response line: inactive
